- EXPERIMENT: Pharmacokinetics (TK) after 30-min IV infusion in monkeys
- Assay type: in vivo, Cynomolgus monkeys
- STUDY CONDITIONS: both sexes, cynomolgus monkey, plasma; mean, 1 hr; 2 mg/kg 30-min IV infusion; read-out: Plasma concentration, Mean
VALUE TYPE: concentration at 1 hr (ng/mL)
One number for each entry, in ng/mL.

- MOLECULE: "C[C@H](OP(=O)(N1CC1)N1CC1)c1ccc([N+](=O)[O-])c(Oc2cccc(C(=O)N(C)C)c2)c1 (single isomer, unassigned)"
  UNIT: "ng/mL"
  MEASURED VALUE: 185

Let's switch to this molecule now.
concentration at 1 hr measured on C[C@@H](OP(=O)(N1CC1)N1CC1)c1ccc([N+](=O)[O-])c(Oc2cccc(C(=O)N(C)C)c2)c1 (single isomer, unassigned) = 70

----------
- Test system: Reh 3
- EXPERIMENT: In vitro human tumor cell line cytotoxicity assay
- Type: cell-based
- STUDY CONDITIONS: read-out: RelIC50
VALUE TYPE: pIC50
Answers are plain numbers, as −log10 of the molar value.

pIC50 measured on C[C@H](OP(=O)(N1CC1)N1CC1)c1ccc([N+](=O)[O-])c(Oc2cccc(C(=O)N(C)C)c2)c1 (single isomer, unassigned) [TH3424] = 8.52

----------
- EXPERIMENT: Pharmacokinetics (TK) after 30-min IV infusion in monkeys
- Format: in vivo, Cynomolgus monkeys
- STUDY CONDITIONS: cynomolgus monkey, plasma; male; 2 mg/kg 30-min IV infusion
Consider the following molecules; for each one, report its MRT inf.
Show the value, then the unit it is measured in.

- MOLECULE: "C[C@@H](OP(=O)(N1CC1)N1CC1)c1ccc([N+](=O)[O-])c(Oc2cccc(C(=O)N(C)C)c2)c1 (single isomer, unassigned) [TH3423]"
  VALUE TYPE: "MRT inf"
  MEASURED VALUE: "13.6 min"

Let's switch to this molecule now.
MRT inf measured on C[C@H](OP(=O)(N1CC1)N1CC1)c1ccc([N+](=O)[O-])c(Oc2cccc(C(=O)N(C)C)c2)c1 (single isomer, unassigned) [TH3424] = 15 min

----------
Consider the following molecules; for each one, report its half-life.
- EXPERIMENT: Pharmacokinetics (TK) after 30-min IV infusion in monkeys
- Assay type: in vivo, Cynomolgus monkeys
- STUDY CONDITIONS: cynomolgus monkey, plasma; female; 2 mg/kg 30-min IV infusion; read-out: Terminal t1/2 (converted)
Numbers only, in min.

- MOLECULE: "C[C@H](OP(=O)(N1CC1)N1CC1)c1ccc([N+](=O)[O-])c(Oc2cccc(C(=O)N(C)C)c2)c1 (single isomer, unassigned)"
  MEASURED VALUE: 10.9

Let's switch to this molecule now.
half-life measured on C[C@@H](OP(=O)(N1CC1)N1CC1)c1ccc([N+](=O)[O-])c(Oc2cccc(C(=O)N(C)C)c2)c1 (single isomer, unassigned) = 6.48

----------
Consider the following molecules; for each one, report its concentration at 0.5 hr.
- EXPERIMENT: Pharmacokinetics (TK) after 30-min IV infusion in monkeys
- Assay type: in vivo, Cynomolgus monkeys
- STUDY CONDITIONS: both sexes, cynomolgus monkey, plasma; mean, 0.5 hr; 2 mg/kg 30-min IV infusion; read-out: Plasma concentration, Mean
Numbers only, in ng/mL.

- MOLECULE: "C[C@H](OP(=O)(N1CC1)N1CC1)c1ccc([N+](=O)[O-])c(Oc2cccc(C(=O)N(C)C)c2)c1 (single isomer, unassigned)"
  concentration at 0.5 hr [ng/mL]: 2400

Let's switch to this molecule now.
concentration at 0.5 hr measured on C[C@@H](OP(=O)(N1CC1)N1CC1)c1ccc([N+](=O)[O-])c(Oc2cccc(C(=O)N(C)C)c2)c1 (single isomer, unassigned) = 1400
